Assay: NCI Yeast Anticancer Drug Screen. Data for the mec2-1 strain (AID 157)
Settings: S. cerevisiae mec2-1 strain, at 5.0 µM (retest, dose inferred, filed as 0.5)
Procedure: Growth inhibition of yeast strains with defined genetic alterations is measured as a screen for potential anti-cancer activity. Selected strains with alterations in DNA damage repair or cell cycle control were exposed to compounds and growth inhibition was measured relative to vehicle treated controls. The strain used in this assay is mec2-1
About 79,000 compounds went through this panel and 15% of them were active in at least one assay; those are over-represented in the sample as a whole. Active and inactive are the calls of the source. Cut-off read from the data, not from the text of the source: active = growth inhibition above about 70%; inactive = the rest.
Write down the outcome that applies. Available outcomes: active, inactive

Use the examples below as a reference point.
Oc1ccc(O)c2nc3ccccc3nc12 : inactive
COc1ccc2[nH]cc(C(=O)O)c2c1 : inactive
O=C(CCC1OCCO1)Nc1cc(NCc2ccccc2)ccc1OCc1ccccc1 : inactive
Cc1ccc(C(=O)OCC(C)C)cc1N=NN(C)C : inactive
CCCCCCCCCCOC(=O)c1cccnc1 : inactive
O=C1C=CC(=O)N1CCc1ccccc1 : inactive

Problem: I'd appreciate the recorded outcome for Cc1cc(Br)cc(C)c1NC(=O)C(=O)C(C(=O)c1ccc2ccccc2c1)C1OC(=O)c2ccccc21 (configuration not stated) from this test.
Result: inactive

Problem: I'd appreciate the recorded outcome for OC(C1CCCCN1)C1CC(c2ccccc2)Nc2c(Cl)cc(Cl)cc21 (configuration not stated) from this test.
Result: inactive

Problem: I'd appreciate the recorded outcome for CCCCCCCCCCCCCCCC[N+](C)(C)CC(=O)O from this test.
Result: inactive

Problem: I'd appreciate the recorded outcome for CC12CCC(O)CC1=CCC1C2CCC2(C)c3nc(C#N)c(=N)n(O)c3CC12 (configuration not stated) from this test.
Result: inactive

Problem: I'd appreciate the recorded outcome for COc1ccc2nc3cccc([N+](=O)[O-])c3c(NCCO)c2c1 from this test.
Result: active

Problem: I'd appreciate the recorded outcome for COc1ccc(OC2OC(COC(c3ccccc3)(c3ccc(OC)cc3)c3ccc(OC)cc3)C(O)C(O)C2O)cc1 (configuration not stated) from this test.
Result: inactive

Problem: I'd appreciate the recorded outcome for O=[N+]([O-])/C(C(Cl)=C(Cl)Cl)=C(/Cl)SCc1ccccc1 from this test.
Result: active

Problem: I'd appreciate the recorded outcome for Cc1cccc(/C=N/Nc2cc(C)nc3ccccc23)n1 from this test.
Result: inactive

Problem: I'd appreciate the recorded outcome for O=c1oc(-c2cc([N+](=O)[O-])cc([N+](=O)[O-])c2Cl)nc2ccccc12 from this test.
Result: inactive

Problem: I'd appreciate the recorded outcome for c1ccc(C2CC(c3ccc4ccccc4c3)=Nc3ccccc3S2)cc1 (configuration not stated) from this test.
Result: inactive

* * *

Kindly supply the reported growth inhibition values for the records listed here.
test: NCI Yeast Anticancer Drug Screen. Data for the rad50 strain (AID 155);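 note: 0% = growth of vehicle-only cultures of the same strain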; settings: S. cerevisiae rad50 strain growth inhibition; at 50.0 µM (retest, dose inferred, filed as 5.0); active compounds read high
About 79,000 compounds went through this panel and 15% of them were active in at least one assay; those are over-represented in the sample as a whole.
Answers are plain numbers, in %.

Consider the worked cases shown below.
O=C(Nc1ccccc1Cl)c1ccc(Cl)c(Cl)c1 : 0
Cc1cc(NC(=S)SCc2ccc(F)cc2)c([N+](=O)[O-])cc1C : 98
CC(CCC(=O)O)[C@H]1CCC2[C@H]3C(CC[C@@]21C)[C@@]1(C)CCC(O)C[C@H]1C[C@@H]3O (some centres not stated) : 46
C[n+]1c(-c2ccc(/C=N/Nc3ccnc(N/N=C/c4ccc(-c5cn6ccccc6[n+]5C)cc4)n3)cc2)cn2ccccc21 : 99
NNc1cc(Cl)ccc1Cl : 93
Cn1c(=O)ccc2cc(C(=O)c3ccccc3)ccc21 : 22
CC(C)CC(C(=O)SCC(C)N1CCCC1)c1ccccc1 (configuration not stated) : 35
C=CCCCCCCCCC(=O)OCC=C : 4

Batch request: growth inhibition for each of the following molecules.
1. COc1cc(OC)c(OC)cc1/C=C\c1nccc2ccccc12
2. OC1(c2ccccc2)CCN(c2c3ccccc3nc3ccccc23)CC1
3. Cc1cc(N(CCCOS(C)(=O)=O)CCCOS(C)(=O)=O)ccc1C=Nc1cc(Br)c(O)c(Br)c1
4. C[C@@H]1CN(CC2COc3ccccc3O2)[C@@H](C)CN1CC1COc2ccccc2O1 (some centres not stated)
5. O=C(NC(Cc1ccc(I)cc1)C(=O)O)c1cccc(Br)c1 (configuration not stated)
6. C=CCN1CCC(OC(=O)C(O)(C#CC)C2CCCC2)CC1 (configuration not stated)
7. COC(=O)c1nnn(-c2cccc(C(F)(F)F)c2)c1C(=O)c1ccc(Cl)c(Cl)c1

Result:
1: 51; 2: 63; 3: 33; 4: 80; 5: 39; 6: 72; 7: 98

Batch request: growth inhibition for each of the following molecules.
1. C1CNC(CCNCCSCCNCCC2=NCCN2)=N1
2. CCCCC(=O)c1nc(N(CC2CCCCC2)C(=O)NC)sc1N
3. [CH3][Sn]1([CH3])[O]C(=O)CCN=Cc2c(ccc3ccccc23)[O][Sn]([CH3])([CH3])[O]C(=O)CCN=Cc2c(ccc3ccccc23)[O]1
4. CC1=C(C(=O)NCc2ccccc2)C(c2ccccc2[N+](=O)[O-])C(C(=O)NCc2ccccc2)=C(C)N1
5. c1ccc2c(c1)CCCc1cc3ccccc3nc1-2
6. O=C(Nc1cccc(Cl)c1)OCCOC(=O)Nc1cccc(Cl)c1
7. COc1cccc(/C=N/NC(=O)c2c(-c3ccccc3)noc2C)c1O
8. O=C(Nc1cc(Cl)ccc1Cl)Nc1ccc(Cl)cc1C(=O)c1ccccc1

Result:
1. 90
2. 11
3. 98
4. 16
5. 96
6. 99
7. 70
8. 99
